Value source: paper PMC9029360

System: Du145 prostate cancer cell line
TEST DETAILS: In vitro cytotoxicity MTT assay, Du145 prostate
Assay type: cell-based
REPORTED CONDITIONS: 72 h drug exposure, n = 3
GI50 values, listed per item
REPORTED PROPERTY: GI50 (nM)

MOLECULE: Cc1c(C)c2cccnc2c2ncccc12.N[C@H]1CCCC[C@@H]1N.O=[N+]([O-])[O-].O=[N+]([O-])[O-].[OH-].[OH-].[Pt+4] [56MESS(IV)]
REPORTED PROPERTY: GI50
TEST VALUE: 15

MOLECULE: CC(=O)Oc1ccccc1C(=O)[O-].Cc1c(C)c2cccnc2c2ncccc12.N[C@H]1CCCC[C@@H]1N.O=[N+]([O-])[O-].O=[N+]([O-])[O-].[OH-].[Pt+4] [compound 4]
REPORTED PROPERTY: GI50
TEST VALUE: 3

MOLECULE: Cc1c(C)c2cccnc2c2ncccc12.N[C@H]1CCCC[C@@H]1N.[Cl-].[Cl-].[Pt+2] [56MESS(II)]
REPORTED PROPERTY: GI50
TEST VALUE: 10

MOLECULE: COc1ccc2c(c1)c(CC(=O)[O][Pt-2]13([OH])([NH2+]C4CCCCC4[NH2+]1)[n+]1cccc4ccc5ccc[n+]3c5c41)c(C)n2C(=O)c1ccc(Cl)cc1.O=[N+]([O-])[O-].O=[N+]([O-])[O-] (stereo not drawn) [compound 1]
REPORTED PROPERTY: GI50
TEST VALUE: 160

MOLECULE: COc1ccc2c(c1)c(CC(=O)[O][Pt-2]13([OH])([NH2+]C4CCCCC4[NH2+]1)[n+]1cccc4c(C)c(C)c5ccc[n+]3c5c41)c(C)n2C(=O)c1ccc(Cl)cc1.O=[N+]([O-])[O-].O=[N+]([O-])[O-] (stereo not drawn) [compound 2]
REPORTED PROPERTY: GI50
TEST VALUE: 7.5

MOLECULE: N[C@H]1CCCC[C@@H]1N.[Cl-].[Cl-].[Pt+2].c1cnc2c(c1)ccc1cccnc12 [PHENSS(II)]
REPORTED PROPERTY: GI50
TEST VALUE: 110
